Molecular target: T1, cynomolgus monkey TNFR2 extracellular domain as used in the blocking ELISA (cynomolgus monkey, UniProt P20333 23-257 (human entry))
T1 construct: also called cynoTNFR2
T1 chain: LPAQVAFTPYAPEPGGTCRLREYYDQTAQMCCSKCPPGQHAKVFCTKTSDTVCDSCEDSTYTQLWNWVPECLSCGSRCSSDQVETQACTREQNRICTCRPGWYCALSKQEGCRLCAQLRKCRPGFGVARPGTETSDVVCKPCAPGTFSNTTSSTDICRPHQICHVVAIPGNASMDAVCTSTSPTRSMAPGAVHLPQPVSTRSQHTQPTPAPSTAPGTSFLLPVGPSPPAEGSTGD
Assay: blocking ELISA: antibody pre-mixed with cynoTNFR2, binding of cynoTNFR2 to coated cynomolgus monkey TNFα read out
Experimental: 96-well round bottom ELISA plates were coated overnight at 4° C. with 50 μL/well of 0.5 μg/mL human TNFα recombinant protein (R&D system, Cat #210-TA-100) in coating buffer. After removing the coating solution, blocking buffer was added into the plates followed by incubation at room temperature for 1 hour in order to block unspecific binding. […] Plates were analyzed with a Synergy HT (Bio-TEK) at 405 nm. […]
Recorded IC50, one value per entry.
Numbers only here, please. The scale is nM.

1. 11C1 chimeric anti-TNFR2 antibody (antibody, V domains shown, Chimeric: mouse variable domains with human constant regions, made as recombinant IgG1) VH: DVQLRESGPGLVTPSQSLSLTCSVTGYSITSGYYWNWIRQIPGNKLEWMGYITYDGNNNYDPSLKNRISITRDTSKNQFFLTLNSVTSEDTATYYCARGDYGDSAMDYWGQGTSVTVSS VL: EIVLTQSPAITAASLGQKVTITCSASSSVSYMHWYQQKSGTSPKPWIYEISKLASGVPARFSGSGSGTSYSLIISSMEAEDAAIYYCQQWNYPLITFGAGTKLELK : 1.09

Next item in the queue.
Inquiry: So what does the record say about IC50 for 51B5 chimeric anti-TNFR2 antibody (antibody, V domains shown, Chimeric: mouse variable domains with human constant regions, made as recombinant IgG1) VH: QVQLQQSGAELARPGTSVKLSCKASGYTFTDDYIDWVKQRTGQGLEWIGEIYPGSGNTYYNEKFKGKATLTADKSSSTAYMQLSSLTSEDSAVYFCARSQVYGKIAMDHWGQGTSVTVSS VL: DIVLTQSPASLAVSLGQRATISCRASESVDNSGNSFMHWYQQIPGQPPKLLIYRASNLESGIPARFSGSGARTDFTLTIDPVGAVDVATYYCQQSKEDPYTFGGGTKLEIE ?
Reply text: 0.968
